Data provenance: ChEMBL document CHEMBL4251649

experiment: Cytotoxicity against human HuH7 cells assessed as reduction in cell viability after 48 hrs by MTT assay; assay type: cell-based, Huh-7
Item-by-item account of CC50 at 48 h
MEASURED_METRIC: CC50 at 48 h (µM)

INSERT INTO results (smiles_input, measured_metric, u, observed) VALUES
  ('CN(C)CCCCOC(=O)Nc1ccc(Cn2nc(-c3ccccc3C(F)(F)F)c3ccccc3c2=O)cc1', 'CC50 at 48 h', 'µM', 35.7),
  ('CN(C)CCCCOC(=O)Nc1ccc(Cn2nc(-c3cccnc3)c3ccccc3c2=O)cc1', 'CC50 at 48 h', 'µM', 68),
  ('CN(C)CCCC(=O)Nc1ccc(Cn2nc(-c3ccc(F)cc3)c3ccccc3c2=O)cc1', 'CC50 at 48 h', 'µM', 38.2),
  ('CN(C)CCCCOC(=O)Nc1ccc(Cn2nc(-c3cnn(C)c3)c3ccccc3c2=O)cc1', 'CC50 at 48 h', 'µM', 55.9),
  ('CN(C)CCCCOC(=O)Nc1ccc(Cn2nc(-c3cccc(C(F)(F)F)c3)c3ccccc3c2=O)cc1', 'CC50 at 48 h', 'µM', 11.6);
